System: Hepatovirus A
PROTOCOL DETAILS: Antiviral activity against HAV MBB in human HepG2 cells assessed as reduction in viral titer at 20 ug/ml by plaque reduction assay
Type: functional, Human hepatitis A virus Hu/Northern Africa/MBB/1978
Parameters: scale not given: the % may be the effect or the level left
Param label: returns Yes when Activity < 50%, returns No otherwise, including exact equality.

* CC1(C)CC(=O)C=C(NCC(=O)NNC(=O)NCCCl)C1 | Yes
* CC1(C)CC(=O)C=C(NCC(=O)N/N=C\c2ccc(Cl)cc2)C1 | No
* CC1(C)CC(=O)C=C(NCC(=O)N/N=C\c2ccc(O)cc2)C1 | Yes
* CCOC(=O)CN1C2=C(C(=O)CC(C)(C)C2)C(c2ccc(Br)cc2)C2=C1CC(C)(C)CC2=O | No
